- measurement_target: T1, p47phox^SH3A-B (human His-tagged p47phox^151-286) (human, UniProt P14598 151-286)
- T1 chain: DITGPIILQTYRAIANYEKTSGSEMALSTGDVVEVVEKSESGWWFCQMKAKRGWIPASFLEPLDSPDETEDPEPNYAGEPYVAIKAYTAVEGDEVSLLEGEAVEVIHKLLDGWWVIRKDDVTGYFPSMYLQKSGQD
- test_summary: FP; in water
Where no end group is shown, it is not given here. TAMRA = carboxytetramethylrhodamine label; Cy5 = cyanine 5 label
Reported values of pKd for individual entries
pKd is a log-scale quantity: -log10 of the concentration expressed in molar.

binder	pKd
{TAMRA}-PPTNPPPRPPAE [carboxytetramethylrhodamine (TAMRA)-p22phox^151-162]	4.40

Need pKd of Cy5-KQPPTNPPPRPPAE [cyanine 5 (Cy5)-p22phox^149-162] , thanks.
4.92
